The measurements presented in this section are drawn from patent USRE49698E1.

Test system: HCMV
Protocol Text: Anti-HCMV (anti-human cytomegalovirus) cytopathogenicity test
Format: cell-based
Stated Conditions: Human betaherpesvirus 5, NHDF, 144 h, read-out: HCMV EC50
Description: Anti-HCMV (Anti-Human Cytomegalovirus) Cytopathogenicity Tests The test compounds are employed as 50 millimolar (mM) solutions in dimethyl sulphoxide (DMSO). Ganciclovir®, Foscarnet® and Cidofovir® are used as reference compounds. […] The plates are then assessed visually using an overhead microscope (Plaque Multiplier from Technomara). […]
Where a name gives a salt, the structure may show the parent alone.
Readout Kind: pEC50
One number for each entry, as −log10 of the molar value.

Compound	Assayed System	pEC50
Cc1cccc(N2CCN(C3=Nc4c(F)cccc4C(CC(=O)O)N3c3cccc(C(F)(F)F)c3)CC2)c1 (single isomer, unassigned) [Example 9, hydrochloride]	HCMV	7.70

The reported HCMV pEC50 of COc1ccc(Cl)cc1N1C(N2CCN(c3ccc(F)cc3)CC2)=Nc2c(F)cccc2C1CC(=O)O (single isomer, unassigned) [Example 23, hydrochloride] is 8.70
